Source of measurements: patent US9957264B2

ASSAYED_SYSTEM: JAK1 (recombinant purified GST-tagged catalytic domain) (Homo sapiens (Human), UniProt P23458)
Sequence (P23458 875-1153): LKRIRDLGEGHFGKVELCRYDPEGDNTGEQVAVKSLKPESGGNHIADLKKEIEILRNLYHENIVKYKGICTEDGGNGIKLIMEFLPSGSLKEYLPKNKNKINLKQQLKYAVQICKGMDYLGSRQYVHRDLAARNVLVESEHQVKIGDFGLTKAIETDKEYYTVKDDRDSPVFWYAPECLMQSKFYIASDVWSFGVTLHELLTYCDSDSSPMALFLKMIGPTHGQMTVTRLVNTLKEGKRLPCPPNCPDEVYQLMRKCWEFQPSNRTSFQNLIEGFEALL
ASSAY_INFO: Jak Biochemical HTRF Assay (JAK1)
EXPERIMENTAL_PARAMETERS: [ATP] 31.8 μM
VALUE_TYPE: log10 IC50 (log10 of the value in nM)

>>> numeric_readout("Cc1cc(Nc2nn(C3(CC#N)CCN(C(=O)OC(C)(C)C)CC3)c3cc[nH]c(=O)c23)ccc1C(=O)N1CCC(F)(F)CC1")
-0.37
>>> numeric_readout("CC(C)(C)OC(=O)[C@@H]1CC[C@@](CC#N)(n2nc(Nc3ccc4ncccc4c3)c3c(=O)[nH]ccc32)CO1")
-1.15
>>> numeric_readout("CN(C)S(=O)(=O)c1ccc(Nc2nn(C3(CC#N)CCN(C(=O)c4ccccc4Cl)CC3)c3cc[nH]c(=O)c23)cc1")
-0.09
>>> numeric_readout("N#CCC1(n2nc(Nc3ccc([C@H](O)C(F)(F)F)cc3)c3c(=O)[nH]ccc32)CCN(c2cc(C(F)(F)F)ccn2)CC1 (single isomer, unassigned)")
0.06
>>> numeric_readout("N#CC[C@@]1(n2nc(Nc3ccccc3)c3c(=O)[nH]ccc32)CCCOC1")
-0.66
>>> numeric_readout("CC(C)(C)OC(=O)N1CCC(CC#N)(n2nc(Nc3ccc(S(=O)(=O)N4CCOCC4)cc3)c3c(=O)[nH]ccc32)CC1")
-0.66
>>> numeric_readout("CC(C)NC(C)(C)c1ccc(Nc2nn([C@@]3(CC#N)CCN(C(=O)OC(C)(C)C)C[C@H]3F)c3cc[nH]c(=O)c23)cc1")
-0.77
>>> numeric_readout("CC(C)(C)OC(=O)N1CCC(CC#N)(n2nc(Nc3ccc4c(c3)CCC4=O)c3c(=O)[nH]ccc32)CC1")
-0.92
>>> numeric_readout("CC(C)(C)OC(=O)[C@@H]1CC[C@@](CC#N)(n2nc(Nc3ccccc3)c3c(=O)[nH]ccc32)CO1")
-0.92
>>> numeric_readout("CN(C)S(=O)(=O)c1ccc(Nc2nn(C3(CC#N)CCN(Cc4ccc(-c5ccon5)cc4)CC3)c3cc[nH]c(=O)c23)cc1")
-0.51
>>> numeric_readout("N#CC[C@]1(n2nc(Nc3ccc(Cl)cc3)c3c(=O)[nH]ccc32)CC[C@@H](NCC(F)(F)F)CC1")
1.87
>>> numeric_readout("CN(C)S(=O)(=O)c1ccc(Nc2nn([C@]3(CC#N)CC[C@@H](C(=O)OC(C)(C)C)OC3)c3cc[nH]c(=O)c23)cc1")
-1.15
>>> numeric_readout("CN(C)S(=O)(=O)c1ccc(Nc2nn([C@]3(CC#N)COCC[C@@H]3F)c3cc[nH]c(=O)c23)cc1 (single isomer, unassigned)")
-0.08
>>> numeric_readout("CC(C)(C)N[C@@H](c1ccc(Nc2nn([C@]3(CC#N)CCOC[C@@H]3F)c3cc[nH]c(=O)c23)cc1)C(F)(F)F (single isomer, unassigned)")
-0.92
>>> numeric_readout("CN(C)S(=O)(=O)c1ccc(Nc2nn(C3(CC#N)CCN(C(=O)Oc4ccc(F)cc4)CC3)c3cc[nH]c(=O)c23)cc1")
-0.57
>>> numeric_readout("CSCCOC(=O)N1CCC(CC#N)(n2nc(Nc3ccc(S(=O)(=O)N(C)C)cc3)c3c(=O)[nH]ccc32)CC1")
-0.51
>>> numeric_readout("CN(C)S(=O)(=O)c1ccc(Nc2nn(C3(CC#N)CCN(C(=O)C4CCOCC4)CC3)c3cc[nH]c(=O)c23)cc1")
-0.51
>>> numeric_readout("Cc1cc(Nc2nn([C@]3(CC#N)CCCOC3)c3cc[nH]c(=O)c23)ccc1C(=O)N1CCC(O)(C(F)(F)F)C1 (single isomer, unassigned)")
-0.48
>>> numeric_readout("CC(C)(C)OC(=O)N1CC(CC#N)(n2nc(Nc3ccnc(F)c3)c3c(=O)[nH]ccc32)C1")
0.55
>>> numeric_readout("Cc1nc2ccc(Nc3nn(C4(CC#N)CCCOC4)c4cc[nH]c(=O)c34)cc2s1 (stereo in doubt)")
-1.05
>>> numeric_readout("COC(=O)N1CCC(CC#N)(n2nc(Nc3ccc(C(F)(F)F)cc3)c3c(=O)[nH]ccc32)CC1")
-0.49
>>> numeric_readout("N#CC[C@]1(n2nc(Nc3ccc(C(F)(F)F)cc3)c3c(=O)[nH]ccc32)CC[C@H](Nc2ccccc2)CC1")
0.80
>>> numeric_readout("Cc1cc(Nc2nn([C@]3(CC#N)CCCOC3)c3cc[nH]c(=O)c23)ccc1C(=O)N1CCCC[C@@H]1C")
-0.37
>>> numeric_readout("CN(C)S(=O)(=O)c1ccc(Nc2nn(C3(CC#N)CCN(Cc4ncco4)CC3)c3cc[nH]c(=O)c23)cc1")
-0.59
>>> numeric_readout("CC(C)(C)OC(=O)N1CC(CC#N)(n2nc(NC3CC3)c3c(=O)[nH]ccc32)C1")
1.61
>>> numeric_readout("CC1(C)Cc2cc(Nc3nn([C@]4(CC#N)CCCOC4)c4cc[nH]c(=O)c34)ccc2C1(O)C(F)(F)F (single isomer, unassigned) [Example 5-120]")
-1.15
